- System: HCI11 (cells of an ER-positive luminal breast cancer xenograft)
- Experimental details: cell viability (% of vehicle); higher = less cytotoxic;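 note: PDX cells carrying CMV promoter-driven luciferase, viability read as total photon flux per second by IVIS imaging following D-luciferin, vehicle control 0.1% DMSO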
- Condition set: 10 µM; 72 h
Measured endpoint: cell viability

- Molecule: "Cc1[nH]c(C=C2C(=O)Nc3ccccc32)c(C)c1CCC(=O)O [TSU-68 (SU6668,Orantinib)]"
  Measured on: "HCI11"
  Measured endpoint: "cell viability"
  Observed result: 106
- Molecule: "O=C(O)C1=COC(OC2OC(CO)C(O)C(O)C2O)C2C(CO)=CCC12 (stereo not given) [Geniposidic acid]"
  Measured on: "HCI11"
  Measured endpoint: "cell viability"
  Observed result: 95.6
- Molecule: "CCC1OC(=O)C(C)C(OC2CC(C)(OC)C(O)C(C)O2)C(C)C(OC2OC(C)CC(N(C)C)C2O)C(C)(O)CC(C)CN(C)C(C)C(O)C1(C)O (stereo not given) [Azithromycin]"
  Measured on: "HCI11"
  Measured endpoint: "cell viability"
  Observed result: 121
- Molecule: "COc1ccc(C2CNC(=O)C2)cc1OC1CCCC1 (stereo not given) [Rolipram]"
  Measured on: "HCI11"
  Measured endpoint: "cell viability"
  Observed result: 106
- Molecule: "OCC1OC(OC2(CCl)OC(CCl)C(O)C2O)C(O)C(O)C1Cl (stereo not given) [Sucralose]"
  Measured on: "HCI11"
  Measured endpoint: "cell viability"
  Observed result: 89.1
- Molecule: "C[N+]1(C)C2CCC1CC(OC(=O)C(O)c1ccccc1)C2.[Br-] (stereo not given) [Homatropine Methylbromide]"
  Measured on: "HCI11"
  Measured endpoint: "cell viability"
  Observed result: 85.9
- Molecule: "Cc1c(C(=O)NN2CCCCC2)nn(-c2ccc(Cl)cc2Cl)c1-c1ccc(Cl)cc1 [Rimonabant]"
  Measured on: "HCI11"
  Measured endpoint: "cell viability"
  Observed result: 87.3
- Molecule: "COc1cccc2c1C(=O)c1c(O)c3c(c(O)c1C2=O)C[C@@](O)(C(C)=O)C[C@@H]3O[C@H]1C[C@H](N)[C@H](O)[C@H](C)O1.Cl [Daunorubicin HCl]"
  Measured on: "HCI11"
  Measured endpoint: "cell viability"
  Observed result: 31.2
- Molecule: "CN(C)CCOC(C)(c1ccccc1)c1ccccn1.O=C(O)CCC(=O)O (stereo not given) [Doxylamine Succinate]"
  Measured on: "HCI11"
  Measured endpoint: "cell viability"
  Observed result: 101
- Molecule: "Nc1cc(C(Cl)=C(Cl)Cl)c(S(N)(=O)=O)cc1S(N)(=O)=O [Clorsulon]"
  Measured on: "HCI11"
  Measured endpoint: "cell viability"
  Observed result: 106
- Molecule: "CN(C)CCOC(c1ccccc1)c1ccccc1.Cl [Diphenhydramine HCl]"
  Measured on: "HCI11"
  Measured endpoint: "cell viability"
  Observed result: 90.8
- Molecule: "CN=C(NC#N)NCCSCc1nc[nH]c1C [Cimetidine]"
  Measured on: "HCI11"
  Measured endpoint: "cell viability"
  Observed result: 101
- Molecule: "CC12CCC3c4ccc(O)cc4CCC3C1CCC2=O (stereo not given) [Estrone]"
  Measured on: "HCI11"
  Measured endpoint: "cell viability"
  Observed result: 102
- Molecule: "CCOc1ccc(NC(C)=O)cc1 [Phenacetin]"
  Measured on: "HCI11"
  Measured endpoint: "cell viability"
  Observed result: 96.7
- Molecule: "CC(C)(Sc1cc(C(C)(C)C)c(O)c(C(C)(C)C)c1)Sc1cc(C(C)(C)C)c(O)c(C(C)(C)C)c1 [Probucol]"
  Measured on: "HCI11"
  Measured endpoint: "cell viability"
  Observed result: 89.7

* * *

- System: HCI03 (cells of an ER-positive luminal breast cancer xenograft)
- Experimental details: cell viability (% of vehicle); higher = less cytotoxic
- Condition set: 10 µM; 72 h
Measured endpoint: cell viability

- Compound: "O=C1C(CCC(O)c2ccc(F)cc2)C(c2ccc(O)cc2)N1c1ccc(F)cc1 (stereo not drawn)"
  Observed result: 102
- Compound: "CCN(CC)C(=O)C(C#N)=Cc1cc(O)c(O)c([N+](=O)[O-])c1"
  Observed result: 159
- Compound: "CC(COc1ccccc1)N(CCCl)Cc1ccccc1.Cl (stereo not drawn) [Phenoxybenzamine HCl]"
  Observed result: 131
- Compound: "COCCCCC(=NOCCN)c1ccc(C(F)(F)F)cc1.O=C(O)C=CC(=O)O [Fluvoxamine maleate]"
  Observed result: 111
- Compound: "Nc1nnc(-c2cccc(Cl)c2Cl)c(N)n1"
  Observed result: 155
- Compound: "COC(=O)c1ccc2c(c1)NC(=O)C2=C(Nc1ccc(N(C)C(=O)CN2CCN(C)CC2)cc1)c1ccccc1"
  Observed result: 63.6
- Compound: "NCCC(O)(P(=O)(O)O)P(=O)(O)O [Pamidronate]"
  Observed result: 112
- Compound: "Cc1nnc(C(=O)NC(C)(C)c2nc(C(=O)NCc3ccc(F)cc3)c(O)c(=O)n2C)o1"
  Observed result: 134

* * *

- Test system: HCI03
- Experimental details: cell viability (% of vehicle); higher = less cytotoxic
- Condition set: 10 µM; 72 h
API: label(entry) gives 1 if the entry's cell viability is strictly smaller than 100; on equality or larger values it gives -1.

- Compound: "CC(C)(O)c1ccccc1CCC(SCC1(CC(=O)[O-])CC1)c1cccc(C=Cc2ccc3ccc(Cl)cc3n2)c1.[Na+] (configuration not stated) [Montelukast Sodium]"
  Measured on: "HCI03"
  Label: -1
- Compound: "O=C(C=Cc1cccc(S(=O)(=O)Nc2ccccc2)c1)NO"
  Measured on: "HCI03"
  Label: -1
- Compound: "CCCCC(=O)N(Cc1ccc(-c2ccccc2-c2nnn[nH]2)cc1)[C@H](C(=O)O)C(C)C.CCOC(=O)[C@H](C)C[C@@H](Cc1ccc(-c2ccccc2)cc1)NC(=O)CCC(=O)O"
  Measured on: "HCI03"
  Label: -1
- Compound: "CNCc1ccc(-c2[nH]c3cc(F)cc4c3c2CCNC4=O)cc1.O=P(O)(O)O"
  Measured on: "HCI03"
  Label: -1
- Compound: "CN(C)CCN1C(=O)c2cccc3cc(N)cc(c23)C1=O [Amonafide]"
  Measured on: "HCI03"
  Label: 1
- Compound: "CC(=O)OCC(=O)C1(O)C(C)CC2C3CCC4=CC(=O)C=CC4(C)C3(F)C(O)CC21C (configuration not stated) [Dexamethasone acetate]"
  Measured on: "HCI03"
  Label: -1

* * *

- Test system: WHIM2 (cells of a triple-negative basal-like breast cancer xenograft)
- Experimental details: cell viability (% of vehicle); higher = less cytotoxic
- Condition set: 10 µM; 72 h
Measured endpoint: cell viability

- Compound: "Cc1[nH]c(=O)c(C#N)cc1-c1ccncc1"
  Measured endpoint: "cell viability"
  Observed result: 101
- Compound: "Cc1ncc([N+](=O)[O-])n1CC(O)CCl (stereo unspecified)"
  Measured endpoint: "cell viability"
  Observed result: 88.1
- Compound: "CCCCCCCCCCCC(CC1OC(=O)C1CCCCCC)OC(=O)C(CC(C)C)NC=O (stereo unspecified)"
  Measured endpoint: "cell viability"
  Observed result: 79.1
- Compound: "COc1c(C)c2c(c(O)c1CC=C(C)CCC(=O)OCCN1CCOCC1)C(=O)OC2 [Mycophenolate Mofetil]"
  Measured endpoint: "cell viability"
  Observed result: 112
- Compound: "CCN(CC)CCCC(C)Nc1ccnc2cc(Cl)ccc12.O=P(O)(O)O.O=P(O)(O)O (stereo unspecified) [Chloroquine diphosphate]"
  Measured endpoint: "cell viability"
  Observed result: 71.2
- Compound: "Cc1nccn1CC1CCc2c(c3ccccc3n2C)C1=O.Cl.O.O (stereo unspecified) [Ondansetron hydrochloride dihydrate]"
  Measured endpoint: "cell viability"
  Observed result: 88.3
- Compound: "COC(=O)c1ccc2c(c1)NC(=O)C2=C(Nc1ccc(N(C)C(=O)CN2CCN(C)CC2)cc1)c1ccccc1"
  Measured endpoint: "cell viability"
  Observed result: 65.2
- Compound: "CC(=O)Nc1ncc([N+](=O)[O-])s1 [Nithiamide]"
  Measured endpoint: "cell viability"
  Observed result: 117
- Compound: "N[C@@H](CCC(=O)N[C@@H](CS)C(=O)NCC(=O)O)C(=O)O"
  Measured endpoint: "cell viability"
  Observed result: 98.6
- Compound: "COC(=O)N(C)c1c(N)nc(-c2nn(Cc3ccccc3F)c3ncccc23)nc1N"
  Measured endpoint: "cell viability"
  Observed result: 97.2
- Compound: "Nc1ccc2cc3ccc([NH3+])cc3nc2c1.Nc1ccc2cc3ccc([NH3+])cc3nc2c1.O=S(=O)([O-])[O-] [Proflavine Hemisulfate]"
  Measured endpoint: "cell viability"
  Observed result: 50.3
- Compound: "CS(=O)(=O)O.CS(=O)(=O)O.N=C(N)c1ccc2cc(OC(=O)c3ccc(N=C(N)N)cc3)ccc2c1 [Nafamostat Mesylate(FUT-175)]"
  Measured endpoint: "cell viability"
  Observed result: 100
- Compound: "O=NN(CCCl)C(=O)NC1CCCCC1"
  Measured endpoint: "cell viability"
  Observed result: 91.3
- Compound: "CCCC(=O)Nc1ccc(OCC(O)CNC(C)C)c(C(C)=O)c1.Cl (stereo unspecified) [Acebutolol HCl]"
  Measured endpoint: "cell viability"
  Observed result: 98.7
- Compound: "CCc1cc(C(C)=NOCc2ccc(C3CCCCC3)c(C(F)(F)F)c2)ccc1CN1CC(C(=O)O)C1 [BAF312 (Siponimod)]"
  Measured endpoint: "cell viability"
  Observed result: 93.7
- Compound: "COC1=C(OC)C(=O)C(CCCCCCCCCCO)=C(C)C1=O"
  Measured endpoint: "cell viability"
  Observed result: 78.4
